test: chemical genetic growth profiling, strain panel (AID 1159580);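 further: tested at 20 µM; growth read once vehicle control cultures reached saturation at 30 °C; 1 = growth at the plate median or of vehicle wells; lower values mean less growth of the strain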; conditions: S. cerevisiae deletion strains, growth OD, locus YDR054C, strain cdc34, active compounds read low
Among all 5,500 compounds or so, about 2,000 (36%) were called active. About 18% were inconclusive and are not listed. This is one part of the list.
So I've got a bunch of compounds here, and I need their normalized growth values.
The reply should be a number, written without any unit.

For this compound ( Cc1ccc(OCC2SCCN2C(=O)c2ccc(C(F)(F)F)cc2)c([N+](=O)[O-])c1 (stereo not drawn) ), measured normalized growth is 0.986

Value of normalized growth reported for the compound N#Cc1ccc(S(=O)(=O)Nc2ccccc2Oc2ccc(Cl)cc2Cl)cc1 is 0.974

The recorded normalized growth for entry O=S(=O)(Nc1cccc2nsnc12)c1cc(Cl)sc1Cl equals 0.95

###

assay: chemical genetic growth profiling, strain panel (AID 1159580);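 further: tested at 20 µM; growth read once vehicle control cultures reached saturation at 30 °C; 1 = growth at the plate median or of vehicle wells; lower values mean less growth of the strain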; settings: S. cerevisiae deletion strains, growth OD, locus YDR297W, strain sur2, active compounds read low
Among all 5,500 compounds or so, about 2,000 (36%) were called active. Not shown: some 18% with an inconclusive outcome. The list shows a part of the results.
Recorded Endpoint: normalized growth
Answer with a number only.

What the record says about O=C1C=CC(=C(c2ccc(O)cc2)c2ccc(O)cc2)C=C1 : normalized growth is 0.987

// field: normalized growth; key: CC(N)C(=O)OC(C)(C)Cc1ccc(Cl)cc1 (stereo unspecified) ; value = 1.01

The reported normalized growth of the compound COc1cc(NC(C)CCCN)c2ncccc2c1 (stereo unspecified) was 1

Input CCCCCCNC(=O)n1cc(F)c(=O)[nH]c1=O . Output normalized growth: 0.978

# normalized growth (compound: CC(C)c1c(C(=O)c2ccccc2)c(-c2ccccc2)c(-c2ccc(F)cc2)n1CC[C@@H](O)C[C@@H](O)CC(=O)O ) is 0.946

// sample CC1=C(/C=C/C(C)=C/C=C/C(C)=C/C=C/C=C(C)/C=C/C=C(C)/C=C/C(=O)[C@]2(C)C[C@@H](O)CC2(C)C)C(C)(C)C[C@H](O)C1 , its normalized growth was 1.02

// normalized growth value for COc1cc2c(cc1OC)[C@@H]1C(=O)c3ccc4oc(C(C)C)cc4c3O[C@@H]1CO2 : 1.02

normalized growth recorded for this compound, OCCN1C[C@@H](O)[C@@H](O)C(O)C1CO (stereo partly specified) , is 1.01

Documented normalized growth of CCOC(=O)C(=O)C1(C(=O)OCC)Oc2cc(OC)cc(OC)c2C(=O)C1c1ccccc1 (stereo unspecified) : 0.949

Short answer for CN(C)c1ccc(C(=C2C=CC(=[N+](C)C)C=C2)c2ccc(N(C)C)cc2)cc1 : normalized growth was 0.537

Record COc1ccc2c(C)cc(=O)oc2c1 , field normalized growth: 1.01

CC1=C(CC(=O)O)c2cc(F)ccc2/C1=C\c1ccc(S(C)=O)cc1 (stereo unspecified) has a reported normalized growth of 1.02

CN1CCCN=C1COC(=O)C(O)(c1ccccc1)C1CCCCC1 (stereo unspecified) has a reported normalized growth of 1

Form field normalized growth, entry CC1CC2C3CC(F)C4=CC(=O)C=CC4(C)C3(F)C(O)CC2(C)C1(O)C(=O)CO (stereo unspecified) : 0.99

Lab book: normalized growth of C[C@H]1CC2C([C@@H](O)C[C@@]3(C)C2CC[C@]3(O)C(=O)CO)[C@@]2(C)C=CC(=O)C=C12 (stereo partly specified) noted as 0.987

So for COc1cc2c(cc1OC)[C@@H]1C(=O)c3ccc(OC)c(CC=C(C)C)c3O[C@@H]1CO2 , the logged normalized growth turned out to be 1.02

The compound listed as CN1CCc2cc3c(cc2[C@H]1C1OC(=O)c2c1ccc1c2OCO1)OCO3 (stereo partly specified) shows normalized growth equal to 0.987

Briefly, normalized growth measured for CC(=O)OCC(=O)[C@@]1(O)CCC2C3CCC4=CC(=O)CC[C@]4(C)C3C(=O)C[C@@]21C (stereo partly specified) : 0.989

The compound listed as COc1cc(NS(=O)(=O)c2ccc(N)cc2)nc(OC)n1 shows normalized growth equal to 0.983

Entry CC(C[N+](C)(C)C)OC(N)=O (stereo unspecified) — recorded normalized growth = 1.02

Recorded result, Cc1[nH]c(C)c(Cl)c(=O)c1Cl , normalized growth: 1.01

normalized growth reading for CCOC(=O)C(C)(C)Oc1ccc(Cl)cc1 : 0.982

response.value for CC(=O)OCC[N+](C)(C)C (field: normalized growth) = 1.02

Record summary for Oc1cc(Cl)ccc1Oc1ccc(Cl)cc1Cl : reported normalized growth = 0.0544

Value of measured normalized growth for the entry COc1ccc2c(c1)OCc1c-2oc2cc(OC)ccc12 : 0.894

What the record says about CCOC(=O)c1c(C)c(Cl)c(O)c(Cl)c1O : normalized growth is 0.677

Reported normalized growth of C[N+](C)(C)CCOC(N)=O : 1.02

The value of normalized growth measured for the compound COc1ccc2c(c1OC)C(=O)O[C@@H]2[C@H]1c2cc3c(cc2CCN1C)OCO3 turned out to be 0.985

So, COc1ccc2c(c1OC)C(=O)O[C@H]2[C@H]1c2cc3c(cc2CCN1C)OCO3 ? Its normalized growth was 1

Sample CC(=O)N[C@@H](CC(C)C)C(=O)O ; normalized growth observed: 0.991

Measured normalized growth, CCOC(=O)C(Cc1ccc(O)cc1)NC(C)=O (stereo unspecified) : 1

// normalized growth lookup, compound = C=Cc1c2[nH]c(c1C)C=c1[nH]c(c(C)c1C=C)=CC1N=C(C=c3[nH]c(c(C)c3CCC(=O)O)=C2)C(CCC(=O)O)=C1C (stereo unspecified) , result: 1.01

Per the record, CC(N)CCCC(C)(C)O (stereo unspecified) has normalized growth of 0.975

// field: normalized growth; key: CCOC(=O)c1c(C)cc(O)c(C=O)c1O ; value = 0.609

compound CCC(=O)O[C@H]1[C@H](O[C@@H]2[C@@H](C)[C@H](O[C@H]3C[C@@](C)(OC)[C@@H](O)[C@H](C)O3)[C@@H](C)C(=O)O[C@H](CC)[C@@](C)(O)[C@H](O)[C@@H](C)C(=O)[C@H](C)C[C@@]2(C)O)O[C@H](C)C[C@@H]1N(C)C , normalized growth observed: 0.942

The value of normalized growth measured for the compound CC1=C(/C=C/C(C)=C/C=C/C(C)=C/C=C/C=C(C)/C=C/C=C(C)/C=C/C2=C(C)C(=O)C(O)CC2(C)C)C(C)(C)CC(O)C1=O (stereo unspecified) turned out to be 1.03

normalized growth in this record for CC(C(=O)O)c1ccc(-c2ccccc2)c(F)c1 (stereo unspecified) : 0.992

Form: compound = COc1ccc(OC)c(C(O)C(C)N)c1 (stereo unspecified) ; normalized growth = 0.998

The recorded normalized growth for entry c1ccc(N=Nc2ccccc2)cc1 equals 0.987

Please fill in: normalized growth reported for CC(=O)OCC(=O)[C@H]1CCC2C3CCC4=CC(=O)CC[C@]4(C)C3CC[C@@]21C (stereo partly specified) = 0.975

For this compound ( CO[C@H]1[C@H](O)[C@H](O[C@H]2CC[C@]3(C)C4CC[C@]5(C)C(C6=CC(=O)OC6)CC[C@]5(O)C4CC[C@@H]3C2)O[C@@H](C)[C@@H]1O (stereo partly specified) ), measured normalized growth is 1.01

###

test: chemical genetic growth profiling, strain panel (AID 1159580);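 further: tested at 20 µM; growth read once vehicle control cultures reached saturation at 30 °C; 1 = growth at the plate median or of vehicle wells; lower values mean less growth of the strain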; conditions: S. cerevisiae deletion strains, growth OD, locus YMR078C, strain ctf18, active compounds read low
The whole screen tested about 5,500 compounds, of which about 2,000 (36%) were called active. Inconclusive results (about 18%) are left out. This is one part of the list.
Recorded Endpoint: normalized growth
Respond using a number only.

Entry OCC(O)C(O)C(O)CO (centres undefined) — recorded normalized growth = 0.998

The compound listed as NC(=O)c1ccc[n+]([C@@H]2O[C@H](COP(=O)([O-])OP(=O)(O)OC[C@H]3O[C@@H](n4cnc5c(N)ncnc54)[C@H](O)[C@@H]3O)[C@@H](O)[C@H]2O)c1 has a reported normalized growth of 0.986

Quick note, normalized growth for O=C(O)c1cc2ccccc2c(Cc2c(O)c(C(=O)O)cc3ccccc23)c1O landed at 0.984

normalized growth measured on O=C(O)c1cc2ccccc2[nH]1 = 1.02

Given item O=C(O)c1c2ccccc2cc2ccccc12 , the value recorded as its normalized growth is 0.974

Measured normalized growth of CC1CC2C3CCC4=CC(=O)C=C[C@]4(C)[C@@]3(F)[C@@H](O)C[C@]2(C)[C@@]1(O)C(=O)CO (some centres undefined) : 0.958

get_value(item= C[C@@H]1[C@H]2[C@H](O[C@@H]3O[C@H](CO)[C@@H](O)[C@H](O)[C@H]3O)OC=C(C(=O)O)[C@H]2C[C@@H]1O , readout=normalized growth) returns 0.976

CC(Oc1ccccc1)C(=O)N[C@@H]1C(=O)N2[C@@H]1SC(C)(C)[C@@H]2C(=O)O (some centres undefined) yielded normalized growth of 1.03

Record COP(=O)(OC)OC=C(Cl)Cl . Reported normalized growth: 0.992
